Test system: JCK
Assay: qHTS profiling for inhibitors of Plasmodium falciparum proliferation (AID 504749); note: nearly all actives have a fitted effect of over 60% in size
Conditions: P. falciparum in erythrocytes, SYBR Green DNA, 72 h; series mostly up to 28.7 µM
Inconclusive results are not listed. Activity calls are given as the source filed them. Calls come from the whole dose curve; as a rule, active = well fitted inhibition curve with a large enough effect; inconclusive = small, poorly fitted or top-dose-only effect; inactive = flat fitted curve, though single readings scatter.
Choose the fitting class; nothing outside yes (1) (active), no (0) (inactive) is accepted.

Assay outcome for O=C(NCNC(=O)NC1C(=O)NC(=O)N1CO)NC1C(=O)NC(=O)N1CO (stereo not drawn) : what was it?
no (0)

I would be grateful if you could indicate the recorded call for CC(C)(O)C1C2OC(=O)C1C1(O)CC3OC34C(=O)OC2C14C (stereo not drawn) .
no (0)

I would be grateful if you could indicate the recorded call for Cc1sc2ccccc2c1CC1=NCCN1 .
no (0)

# outcome recorded in this test, key = CNC(=O)OCC[N+](C)(C)C
no (0)

How did this test come out for COc1ccc(OC)c(C(O)C(C)N)c1 (stereo not drawn) ?
no (0)

Look up the recorded call for CCC(N)Cc1c[nH]c2ccccc12 (stereo not drawn) in this test.
no (0)

Please share the test call associated with O=C1CN=C(c2ccccc2)c2cc(Cl)ccc2N1CC1CC1 .
no (0)

Field: outcome | Entry: CN1C2CCC1CC(OC(c1ccccc1)c1ccc(Cl)cc1)C2 (stereo not drawn)
yes (1)

Recorded call for c1cc2c(c(NC3=NCCN3)c1)CCCC2 ?
no (0)

Hey, what did the test say about C[N+]1(C)CCCCC1COC(=O)C(O)(c1ccccc1)c1ccccc1 (stereo not drawn) ?
no (0)

// param item: Clc1ccccc1Cl ; yields the recorded call
no (0)

Which outcome did this test record for the compound O=P(O)(O)C(Cl)(Cl)P(=O)(O)O ?
no (0)

Given C#CC(C)(O)CC (stereo not drawn) , state the outcome it received in this test.
no (0)
